molecular target: Replicase polyprotein 1ab (Severe acute respiratory syndrome coronavirus 2); experiment: Binding affinity to SARS-CoV-2 3CL protease assessed as monophasic dissociation rate by measuring half life by jump dilution assay
Readout name: T1/2

>>> print(df.to_string())
                                   compound                              assay_target    result
0  COCCC(C=O)NC(=O)[C@H](CC(C)C)NC(=O)[C@H](Cc1ccc(F)cc1)NC(=O)OCc1ccccc1 (mixture of isomers)  Replicase polyprotein 1ab (Severe acute respiratory syndrome coronavirus 2)  < 12 min
1  CC(C)C[C@H](NC(=O)[C@H](Cc1ccc(F)cc1)NC(=O)OCc1ccccc1)C(=O)NC(C=O)Cc1ccco1 (mixture of isomers)  Replicase polyprotein 1ab (Severe acute respiratory syndrome coronavirus 2)  < 12 min
2  CC(C)C[C@H](NC(=O)[C@H](Cc1ccc(F)cc1)NC(=O)OCc1ccccc1)C(=O)NC(C=O)CCF (mixture of isomers)  Replicase polyprotein 1ab (Severe acute respiratory syndrome coronavirus 2)  < 12 min

* * *

experiment: Cytotoxicity against human MRC5 cells infected with […] inhibition of cell growth; type: toxicity, cell-based
Where a SMILES comes first, the peptide text is derived from it. [ ]: non-standard residue; d: D form. The star is where a group is joined. Phe(4-F) = N[C@@H](Cc1ccc(F)cc1)C(=O)O; Cbz = O=C(OCc1ccccc1)*
Criterion: CC50 strictly under 5 µM. Met: rule met. Not met: rule not met.

>>> df
                                    compound  assigned_category
 0  CC(C)C[C@H](NC(=O)[C@H](Cc1ccc(F)cc1)NC(=O)OCc1ccccc1)C(=O)NC(C=O)Cc1ccc(F)cc1 (mixture of isomers)           rule met
 1  CC(C)C[C@H](NC(=O)[C@H](Cc1ccc(F)cc1)NC(=O)OCc1ccccc1)C(=O)NC(C=O)Cc1ccccn1 (mixture of isomers)       rule not met
 2  CC(C)C[C@H](NC(=O)[C@H](Cc1ccc(F)cc1)NC(=O)OCc1ccccc1)C(=O)NC(C=O)Cc1cccnc1 (mixture of isomers)       rule not met
 3  CC(C)C[C@H](NC(=O)[C@H](Cc1ccc(F)cc1)NC(=O)OCc1ccccc1)C(=O)NC(C=O)Cc1c[nH]cn1 (mixture of isomers)       rule not met
 4  CC(C)C[C@H](NC(=O)[C@H](Cc1ccc(F)cc1)NC(=O)OCc1ccccc1)C(=O)NC(C=O)Cc1ccccc1F (mixture of isomers)           rule met
 5  CC(C)C[C@H](NC(=O)[C@H](Cc1ccc(F)cc1)NC(=O)OCc1ccccc1)C(=O)NC(C=O)CCF (mixture of isomers)           rule met
 6  COCCC(C=O)NC(=O)[C@H](CC(C)C)NC(=O)[C@H](Cc1ccc(F)cc1)NC(=O)OCc1ccccc1 (mixture of isomers)       rule not met
 7  CC(C)C[C@H](NC(=O)[C@H](Cc1ccc(F)cc1)NC(=O)OCc1ccccc1)C(=O)NC(C=O)CC1CCCO1 (mixture of isomers)       rule not met
 8  CC(C)C[C@H](NC(=O)[C@H](Cc1ccc(F)cc1)NC(=O)OCc1ccccc1)C(=O)NC(C=O)CC(F)F (mixture of isomers)           rule met
 9  CC(C)C[C@H](NC(=O)[C@H](Cc1ccc(F)cc1)NC(=O)OCc1ccccc1)C(=O)N[C@H](C=O)CC[S+](C)[O-] (mixture of isomers)       rule not met
10  CC(C)C[C@H](NC(=O)[C@H](Cc1ccc(F)cc1)NC(=O)OCc1ccccc1)C(=O)NC(C=O)Cc1cccc(F)c1 (mixture of isomers)           rule met
11  CSCC[C@@H](C=O)NC(=O)[C@H](CC(C)C)NC(=O)[C@H](Cc1ccc(F)cc1)NC(=O)OCc1ccccc1 (Cbz-[Phe(4-F)]-Leu-Met-aldehyde)           rule met

* * *

molecular target: Replicase polyprotein 1ab (Severe acute respiratory syndrome coronavirus 2)
pIC50: −log10 of the molar value.
Label rule, in plain words: pIC50 of 8 and up is met, under 8 is not met.

>>> df
                                    molecule  assigned_category
 0  CC(C)C[C@H](NC(=O)[C@H](Cc1ccc(F)cc1)NC(=O)OCc1ccccc1)C(=O)N[C@@H](/C=C1\CCOC1=O)C[C@H]1CCCO1            not met
 1  CC(C)C[C@H](NC(=O)[C@H](Cc1ccc(F)cc1)NC(=O)OCc1ccccc1)C(=O)NC(C=O)CC1CCCO1 (mixture of isomers)                met
 2  CC(C)C[C@H](NC(=O)[C@H](Cc1ccc(F)cc1)NC(=O)OCc1ccccc1)C(=O)NC(/C=C1\CCOC1=O)CC1CCCO1 (mixture of isomers)            not met
 3  CC(C)C[C@H](NC(=O)[C@H](Cc1ccc(F)cc1)NC(=O)OCc1ccccc1)C(=O)NC(C=O)CC(F)F (mixture of isomers)            not met
 4  CC(C)C[C@H](NC(=O)[C@H](Cc1ccc(F)cc1)NC(=O)OCc1ccccc1)C(=O)NC(CC1CCCO1)C(=O)C(=O)NC(C)C (mixture of isomers)            not met
 5  COCCC(C=O)NC(=O)[C@H](CC(C)C)NC(=O)[C@H](Cc1ccc(F)cc1)NC(=O)OCc1ccccc1 (mixture of isomers)            not met
 6  CC(C)C[C@H](NC(=O)[C@H](Cc1ccc(F)cc1)NC(=O)OCc1ccccc1)C(=O)NC(C=O)Cc1cccnc1 (mixture of isomers)            not met
 7  CC(C)C[C@H](NC(=O)[C@H](Cc1ccc(F)cc1)NC(=O)OCc1ccccc1)C(=O)NC(C=O)CC1CCCCO1 (mixture of isomers)            not met
 8  CC(C)C[C@H](NC(=O)[C@H](Cc1ccc(F)cc1)NC(=O)OCc1ccccc1)C(=O)NC(C=O)Cc1ccco1 (mixture of isomers)            not met
 9  CC(C)C[C@H](NC(=O)[C@H](Cc1ccc(F)cc1)NC(=O)OCc1ccccc1)C(=O)NC(C=O)Cc1ccc(F)cc1 (mixture of isomers)            not met
10  CC(C)C[C@H](NC(=O)[C@H](Cc1ccc(F)cc1)NC(=O)OCc1ccccc1)C(=O)NC(C=O)Cc1ccccc1F (mixture of isomers)                met

* * *

UniProt P0DTD1: reported IC50 for various compounds.
Readout name: IC50 (nM)

                                   compound  prefix_operator  result
0  CC(C)C[C@H](NC(=O)[C@H](Cc1ccc(F)cc1)NC(=O)OCc1ccccc1)C(=O)NC(C=O)Cc1ccccn1 (mixture of isomers)                =    12.6
1  CC(C)C[C@H](NC(=O)[C@H](Cc1ccc(F)cc1)NC(=O)OCc1ccccc1)C(=O)N[C@H](/C=C1\CCOC1=O)C[C@@H]1CCCO1                =    39.8
2  CC(C)C[C@H](NC(=O)[C@H](Cc1ccc(F)cc1)NC(=O)OCc1ccccc1)C(=O)NC(C=O)Cc1cncs1 (mixture of isomers)                >    1000
3  CC(C)C[C@H](NC(=O)[C@H](Cc1ccc(F)cc1)NC(=O)OCc1ccccc1)C(=O)N[C@H](/C=C1\CCOC1=O)C[C@@H]1CCNC1=O                =    1.58
4  CC(C)C[C@H](NC(=O)[C@H](Cc1ccc(F)cc1)NC(=O)OCc1ccccc1)C(=O)NC(C=O)CC(F)(F)F (mixture of isomers)                >    1000
5  CC(C)C[C@H](NC(=O)[C@H](Cc1ccc(F)cc1)NC(=O)OCc1ccccc1)C(=O)N[C@H](/C=C1\CCOC1=O)C[C@H]1CCCO1                =     126

* * *

# reported IC50; entries follow
target: Replicase polyprotein 1ab (Severe acute respiratory syndrome coronavirus 2); test: Inhibition of SARS-CoV-2 3CL protease by FRET assay
Readout name: IC50 (nM)

>>> print(df.to_string())
                                   compound                              assay_target  readout_name  prefix_operator  result
0  CC(C)C[C@H](NC(=O)[C@H](Cc1ccc(F)cc1)NC(=O)OCc1ccccc1)C(=O)NC(C=O)CC1CCCC1 (mixture of isomers)  Replicase polyprotein 1ab (Severe acute respiratory syndrome coronavirus 2)          IC50                =    79.4
1  CC(C)C[C@H](NC(=O)[C@H](Cc1ccc(F)cc1)NC(=O)OCc1ccccc1)C(=O)N[C@@H](/C=C1\CCOC1=O)C[C@@H]1CCCO1  Replicase polyprotein 1ab (Severe acute respiratory syndrome coronavirus 2)          IC50                >    1000
2  CC(C)C[C@H](NC(=O)[C@H](Cc1ccc(F)cc1)NC(=O)OCc1ccccc1)C(=O)NC(C=O)Cc1c[nH]cn1 (mixture of isomers)  Replicase polyprotein 1ab (Severe acute respiratory syndrome coronavirus 2)          IC50                =    15.8
3  CC(C)C[C@H](NC(=O)[C@H](Cc1ccc(F)cc1)NC(=O)OCc1ccccc1)C(=O)NC(C=O)CCF (mixture of isomers)  Replicase polyprotein 1ab (Severe acute respiratory syndrome coronavirus 2)          IC50                =     631
4  CC(C)C[C@H](NC(=O)[C@H](Cc1ccc(F)cc1)NC(=O)OCc1ccccc1)C(=O)NC(C=O)Cc1ccncc1 (mixture of isomers)  Replicase polyprotein 1ab (Severe acute respiratory syndrome coronavirus 2)          IC50                >    1000
